molecular target: human WT-CFTR (Homo sapiens); construct: the native wild-type CFTR construct without any deletion or mutation; expressed in transfected cells; host or cells: CHO cells, pcDNA plasmid; assay: Inside-out patch-clamp inhibition of CFTR current by Inh-172; assay type: cell-based; settings: human CFTR; value of earlier manuscript version quoted in peer review file
Sequence (P13569 whole entry): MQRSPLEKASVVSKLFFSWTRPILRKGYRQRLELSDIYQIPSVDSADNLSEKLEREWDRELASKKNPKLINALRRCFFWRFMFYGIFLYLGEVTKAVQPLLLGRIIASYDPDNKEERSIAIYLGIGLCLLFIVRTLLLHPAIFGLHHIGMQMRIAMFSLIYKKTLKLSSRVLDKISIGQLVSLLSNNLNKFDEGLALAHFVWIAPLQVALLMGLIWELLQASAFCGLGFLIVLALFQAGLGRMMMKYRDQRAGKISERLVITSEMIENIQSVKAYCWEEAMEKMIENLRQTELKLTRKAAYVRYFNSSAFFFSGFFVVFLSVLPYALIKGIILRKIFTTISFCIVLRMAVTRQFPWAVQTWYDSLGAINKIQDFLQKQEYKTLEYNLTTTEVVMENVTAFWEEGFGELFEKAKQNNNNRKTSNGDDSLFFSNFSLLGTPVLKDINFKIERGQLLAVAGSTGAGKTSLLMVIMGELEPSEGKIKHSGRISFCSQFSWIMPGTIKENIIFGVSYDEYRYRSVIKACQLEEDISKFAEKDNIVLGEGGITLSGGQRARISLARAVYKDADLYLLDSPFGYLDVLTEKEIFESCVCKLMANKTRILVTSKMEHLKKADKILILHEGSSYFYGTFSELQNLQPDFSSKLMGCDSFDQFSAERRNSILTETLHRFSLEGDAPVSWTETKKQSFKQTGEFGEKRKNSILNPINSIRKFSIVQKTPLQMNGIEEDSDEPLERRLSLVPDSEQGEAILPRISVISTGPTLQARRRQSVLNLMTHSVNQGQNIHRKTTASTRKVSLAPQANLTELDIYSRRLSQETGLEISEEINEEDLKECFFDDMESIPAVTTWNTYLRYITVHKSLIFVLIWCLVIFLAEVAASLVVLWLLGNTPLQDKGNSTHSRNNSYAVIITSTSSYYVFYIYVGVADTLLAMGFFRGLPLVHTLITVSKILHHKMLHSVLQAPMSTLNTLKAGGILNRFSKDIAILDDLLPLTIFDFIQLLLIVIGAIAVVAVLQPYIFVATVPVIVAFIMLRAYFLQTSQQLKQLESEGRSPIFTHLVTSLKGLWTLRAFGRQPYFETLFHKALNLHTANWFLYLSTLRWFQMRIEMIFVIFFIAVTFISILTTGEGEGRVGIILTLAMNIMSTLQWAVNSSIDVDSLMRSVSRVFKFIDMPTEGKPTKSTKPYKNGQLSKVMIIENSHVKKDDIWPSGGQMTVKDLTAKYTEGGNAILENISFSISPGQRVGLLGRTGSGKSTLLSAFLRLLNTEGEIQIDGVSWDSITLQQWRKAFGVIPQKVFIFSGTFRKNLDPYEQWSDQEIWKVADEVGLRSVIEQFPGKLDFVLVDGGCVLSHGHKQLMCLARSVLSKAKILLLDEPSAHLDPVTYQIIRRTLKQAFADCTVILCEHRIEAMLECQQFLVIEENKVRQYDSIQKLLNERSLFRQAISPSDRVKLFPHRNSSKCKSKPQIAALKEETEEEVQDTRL
Reported Metric: IC50 (nM)
Please state the figure in nM; there is no need to write the unit.

Returns the measured IC50 for the input molecule. Input: `O=C(O)c1ccc(/C=C2\SC(=S)N(c3cccc(C(F)(F)F)c3)C2=O)cc1`
83

* * *

target: K95A-CFTR (Homo sapiens, UniProt P13569, K95A); construct: expressed in transfected cells; host or cells: CHO cells, pcDNA plasmid; experiment: Inside-out patch-clamp inhibition of CFTR current by Inh-172; assay type: cell-based; settings: K95A
Sequence (P13569 whole entry K95A): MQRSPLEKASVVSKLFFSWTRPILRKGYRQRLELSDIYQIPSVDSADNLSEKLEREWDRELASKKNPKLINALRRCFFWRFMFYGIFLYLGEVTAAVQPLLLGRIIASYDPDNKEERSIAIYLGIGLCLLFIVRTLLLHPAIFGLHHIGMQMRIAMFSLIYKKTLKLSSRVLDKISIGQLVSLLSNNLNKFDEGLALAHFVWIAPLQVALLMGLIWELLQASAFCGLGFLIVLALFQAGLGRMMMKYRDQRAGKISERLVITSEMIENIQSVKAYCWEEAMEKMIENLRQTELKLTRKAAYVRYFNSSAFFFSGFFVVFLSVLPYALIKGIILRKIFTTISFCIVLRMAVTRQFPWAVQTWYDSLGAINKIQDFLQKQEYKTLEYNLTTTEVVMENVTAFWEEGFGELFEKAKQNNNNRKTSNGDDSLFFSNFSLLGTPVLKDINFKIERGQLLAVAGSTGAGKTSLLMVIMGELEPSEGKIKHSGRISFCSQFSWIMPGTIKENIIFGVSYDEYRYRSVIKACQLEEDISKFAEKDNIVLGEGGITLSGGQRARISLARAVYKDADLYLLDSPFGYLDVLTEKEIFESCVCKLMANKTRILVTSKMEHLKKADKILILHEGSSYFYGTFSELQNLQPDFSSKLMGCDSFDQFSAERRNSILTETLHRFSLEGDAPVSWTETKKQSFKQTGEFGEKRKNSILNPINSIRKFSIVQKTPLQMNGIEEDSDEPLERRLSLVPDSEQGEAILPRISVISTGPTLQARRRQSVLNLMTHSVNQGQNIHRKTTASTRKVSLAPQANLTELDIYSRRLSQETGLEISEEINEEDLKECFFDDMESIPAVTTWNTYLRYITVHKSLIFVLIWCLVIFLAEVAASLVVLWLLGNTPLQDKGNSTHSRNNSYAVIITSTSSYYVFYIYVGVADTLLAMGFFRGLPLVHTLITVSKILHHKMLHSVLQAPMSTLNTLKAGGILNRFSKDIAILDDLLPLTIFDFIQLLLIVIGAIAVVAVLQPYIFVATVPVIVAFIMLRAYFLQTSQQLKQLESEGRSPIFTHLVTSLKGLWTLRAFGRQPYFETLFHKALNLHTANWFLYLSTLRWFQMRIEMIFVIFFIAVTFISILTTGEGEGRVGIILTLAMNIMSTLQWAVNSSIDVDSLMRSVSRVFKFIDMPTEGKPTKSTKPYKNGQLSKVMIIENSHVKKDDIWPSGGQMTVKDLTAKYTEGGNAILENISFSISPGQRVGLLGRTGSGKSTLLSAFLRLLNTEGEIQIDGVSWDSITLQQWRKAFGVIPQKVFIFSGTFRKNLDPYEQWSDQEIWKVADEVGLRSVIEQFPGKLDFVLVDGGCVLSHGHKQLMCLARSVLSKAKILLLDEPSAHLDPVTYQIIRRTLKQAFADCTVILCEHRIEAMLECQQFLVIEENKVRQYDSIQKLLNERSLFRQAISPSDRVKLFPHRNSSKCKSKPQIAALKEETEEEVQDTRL
Reported Metric: IC50

So what IC50 did O=C(O)c1ccc(/C=C2\SC(=S)N(c3cccc(C(F)(F)F)c3)C2=O)cc1 [Inh-172, CFTRinh-172] get with K95A-CFTR (Homo sapiens, UniProt P13569, K95A)?
850 nM
